Recorded MIC A. bau., one value per entry.
- Test system: Acinetobacter baumanii ATCC 17878
- Experimental parameters: Table 1; broth microdilution, Nutrient Broth 0.5×, overnight 37 °C; minimum of three independent experiments
Ends that are not written are not given here.
Value type: MIC A. bau.

- Substance: "H-PGVVWVSFRGADYSLRAVRMKIRPLVTQ [(P)FIBα-GVV27]"
  Result: "6.25 µM"
- Substance: "H-PGIIWATWKTRWYSMKKTTMKIIPFNRLTIG [(P)FIBγ-GII30]"
  Result: "6.25 µM"
- Substance: "H-PNWKGSWYSMRKMSMKIRPFFPQQ [(P)FIBβ-NWK23]"
  Result: "6.25 µM"
- Substance: "TWKTRWYSMKKTTMKIIPFNRLTIG [FIBγ-TWK25]"
  Result: "3.12 µM"
- Substance: "GIIWATWKTRWYSMKKTTMKIIPFNRLTIG [FIBγ-GII30]"
  Result: "6.25 µM"
- Substance: "H-PTWKTRWYSMKKTTMKIIPFNRLTIG [(P)FIBγ-TWK25]"
  Result: "3.12 µM"
- Substance: "GVVWVSFRGADYSLRAVRMKIRPLVTQ [FIBα-GVV27]"
  Result: "6.25 µM"

Source: paper PMC12469503
